src = ChEMBL document CHEMBL3817786

- TARGET DESC: Carbonic anhydrase 5A, mitochondrial (Homo sapiens, UniProt P35218)
- Sequence (P35218 whole entry): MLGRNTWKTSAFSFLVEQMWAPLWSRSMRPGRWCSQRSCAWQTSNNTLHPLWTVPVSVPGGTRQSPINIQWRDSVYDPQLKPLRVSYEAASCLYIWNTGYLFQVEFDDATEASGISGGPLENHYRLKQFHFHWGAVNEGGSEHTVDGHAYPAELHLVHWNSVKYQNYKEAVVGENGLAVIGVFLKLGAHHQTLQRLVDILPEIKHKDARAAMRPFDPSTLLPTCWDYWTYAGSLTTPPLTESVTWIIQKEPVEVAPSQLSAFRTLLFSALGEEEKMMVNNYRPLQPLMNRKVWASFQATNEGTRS
- RUN DESCRIPTION: Inhibition of human recombinant carbonic anhydrase 5A expressed in Escherichia coli BL21 (DE3) by stopped-flow CO2 hydration assay
ASSAY ENDPOINT: Ki (nM)
Express your answer in nM, writing the number without its unit.

Need Ki of "NS(=O)(=O)CCNC(=O)/C(Cc1ccc(O)c(Br)c1)=N/O" , thanks. 154

---

- TARGET DESC: Carbonic anhydrase 13 (Homo sapiens, UniProt Q8N1Q1)
- Sequence (Q8N1Q1 whole entry): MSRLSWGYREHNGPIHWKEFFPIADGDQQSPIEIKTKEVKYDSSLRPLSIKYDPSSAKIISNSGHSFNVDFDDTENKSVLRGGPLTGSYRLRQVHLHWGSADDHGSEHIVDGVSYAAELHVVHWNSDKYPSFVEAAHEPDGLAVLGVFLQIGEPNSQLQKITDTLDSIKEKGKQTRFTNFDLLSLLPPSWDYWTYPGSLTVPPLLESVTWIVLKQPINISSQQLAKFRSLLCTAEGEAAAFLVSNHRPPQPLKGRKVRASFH
- RUN DESCRIPTION: Inhibition of human recombinant carbonic anhydrase 13 expressed in Escherichia coli BL21 (DE3) by stopped-flow CO2 hydration assay
ASSAY ENDPOINT: pKi
Please note pKi is a logarithmic value: minus log10 of concentration in mol/L. Answer with that number alone.

What does the data say about its pKi? Entry: "NS(=O)(=O)CCNC(=O)/C(Cc1ccc(O)c(Br)c1)=N/O" 4.97
